test: NCI Yeast Anticancer Drug Screen. Data for the mec2-1 strain (AID 157); conditions: S. cerevisiae mec2-1 strain, at 50.0 µM, hits give high values
This is part of a sample that, as a whole, favours compounds with a hit. Of some 79,000 tested, about 15% had one in any assay.
experimentalReadout: growth inhibition (%)
Numbers only; they are read as %.

Measured growth inhibition of `NNc1ncccn1` : -1.15

Measured growth inhibition of `C=C(OC(C)=O)c1ccccc1` : -12.4

Measured growth inhibition of `CC(=O)N(CCCCCCN(C(C)=O)C(C)=O)C(C)=O` : -9.25

Measured growth inhibition of `CCCCCC(=O)OCCC1CCCCC1` : 9.3

Measured growth inhibition of `CSc1cnc2ccccc2n1` : -5.95

Measured growth inhibition of `CCOc1ccc(NC(=S)N2CCC(CCCC3CCN(C(=S)Nc4ccc(OCC)cc4)CC3)CC2)cc1` : -31.9

Measured growth inhibition of `COc1ccc2c(ccc[n+]2C)c1` : 30.9

====

Field: growth inhibition. Provide a value for each of the molecules that follow.
assay: NCI Yeast Anticancer Drug Screen. Data for the mlh1 rad18 strain (AID 175); settings: S. cerevisiae mlh1 rad18 strain growth inhibition; at 50.0 µM; hits give high values
This is part of a sample that, as a whole, favours compounds with a hit. Of some 79,000 tested, about 15% had one in any assay.
Numbers only; they are read as %.

Measured growth inhibition of CC1CCC(C)(C)c2ccccc21 (stereo not given) : 2.3

Measured growth inhibition of `CCOC(=O)c1c[nH][nH]c1=O` : 5.8

Measured growth inhibition of `O=C(O)Cc1ccccn1` : -2.25

Measured growth inhibition of `O=C(Nc1ccccc1)c1ccco1` : 11.2

Measured growth inhibition of `O=C(Nc1c(Cl)cc(Cl)cc1Cl)ON=C1CCCCC1` : 3.6

Measured growth inhibition of `Nc1ncnc(Nc2ccc(C(F)(F)F)cc2)n1` : 17.9

Measured growth inhibition of `CCC(=O)Oc1c(C)cc(O)c2ccccc12` : 27.7

Measured growth inhibition of `C/C(=N\O)c1ccccn1` : 1.45

Measured growth inhibition of `Cc1cc(C(=O)NN)c(C#N)c(=O)[nH]1` : -0.5

Measured growth inhibition of `CC(=O)NCNC(C)=O` : -0.6

Measured growth inhibition of `CCc1ccccc1C(=O)N(CC)CC` : -6.65

Measured growth inhibition of `Cc1cc(C(=O)c2ccccc2)cc(C)c1O` : 30.4

Measured growth inhibition of `Oc1cc2ccccc2c(-c2c(O)c(O)cc3ccccc23)c1O` : 91.7

Measured growth inhibition of `NNC(=O)CCCCl` : -0.2

Measured growth inhibition of CS(=O)CC(=N\O)/C(CS(C)=O)=N\O (stereo not given) : 9.2

====

test: NCI Yeast Anticancer Drug Screen. Data for the sgs1 mgt1 strain (AID 161);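 also: 0% = growth of cultures given vehicle only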; details: S. cerevisiae sgs1 mgt1 strain, at 50.0 µM, hits give high values
The panel holds about 79,000 compounds, 15% with a hit somewhere; the sample as a whole holds those more often.
// thresholds for growth inhibition classes: bin 0 (below -10%), bin 1 (-10% to below 10%), bin 2 (10% or more)

# bin label for `CC(=O)C[n+]1ccc(C)cc1Sc1ccccc1C`
bin 1

# bin label for `COc1ccc2c(c1)Nc1ccccc1S2`
bin 0

# bin label for `CCOC(=O)c1ccc(NC(=O)Nc2nccs2)cc1`
bin 2

# bin label for Clc1cccc(Cl)c1C1CSc2ccccc2N=C1c1ccccc1 (centres undefined)
bin 2

# bin label for OCC1OC(n2ccc3c2ncn2ncnc32)C(O)C1O (centres undefined)
bin 0

# bin label for C#CC(O)c1ccccc1 (centres undefined)
bin 2

# bin label for `CC(=O)c1cc(O)ccc1O`
bin 2

# bin label for `Cc1ccc([N+](=O)[O-])c(C)n1`
bin 1

# bin label for `ON1CCCC1`
bin 1

# bin label for `FC(F)(F)c1cc(NC2=NCCN=C(Nc3cc(C(F)(F)F)cc(C(F)(F)F)c3)SS2)cc(C(F)(F)F)c1`
bin 0

# bin label for `CCCCCC(=O)OCCC1CCCCC1`
bin 2

# bin label for CC12CCC3c4ccc(O)cc4CCC3C1CCC2=O (centres undefined)
bin 2

# bin label for `O=S1(=O)c2ccccc2Oc2ccccc21`
bin 0

# bin label for CC(C)(C)NCCC(O)c1cc(C(F)(F)F)nc2c(C(F)(F)F)cccc12 (centres undefined)
bin 0

All figures here come from PubChem BioAssay (NCI).
